- assay.explanation: NCI Yeast Anticancer Drug Screen. Data for the mec2-1 strain (AID 157)
- test.settings: S. cerevisiae mec2-1 strain, at 33.0 µM, active compounds read high
Compounds without any hit were thinned out: in the full panel of roughly 79,000, 15% have a hit.
metric: growth inhibition (%)
Give just the numeric value; % need not be written.

sample.smiles	meas.value
CCOC(=O)Nc1ccc2c(c1)Cc1ccccc1-2	-5
S=c1[nH]nc(-c2ccc(Cl)cc2)s1	71
CCCCCCSc1nc(COC(=O)NC)c(COC(=O)NC)n1C	9
CCn1ncc(N=O)c1N	37
COc1ccc(N=Nc2ccc3oc(=O)c(C(=O)Nc4ccccc4)cc3c2)cc1	97

Briefly, growth inhibition measured for Cc1ccc(S(=O)(=O)N/N=C/C2(c3ccccc3)c3ccccc3-c3ccccc32)cc1 : 78

growth inhibition measured on O=C(/C=C/c1cccc2ccccc12)c1ccc(Cl)cc1 = -6

growth inhibition for COc1ccc(S(=O)(=O)N/N=C\c2cc([N+](=O)[O-])cc(I)c2O)c(OC)c1OC is 15

====

Listed here are compounds together with their documented growth inhibition.
- assay.explanation: NCI Yeast Anticancer Drug Screen. Data for the CLN2oe strain (AID 163);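 further: 0% = growth of vehicle-only control cultures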
- test.settings: S. cerevisiae CLN2oe strain, at 1.2 µM, active compounds read high
- Experimental: Growth inhibition of yeast strains with defined genetic alterations is measured as a screen for potential anti-cancer activity. Selected strains with alterations in DNA damage repair or cell cycle control were exposed to compounds and growth inhibition was measured relative to vehicle treated controls. The strain used in this assay is CLN2oe
Compounds without any hit were thinned out: in the full panel of roughly 79,000, 15% have a hit.
Respond numerically; units are % and should not be typed.

Below: 3 compounds and their reported growth inhibition.
compound	growth inhibition (%)
COc1ccc(SCc2cc(OC)ccc2OC)cc1	-4
N#C/C(=C/N1C(=O)/C(=C/c2ccc([N+](=O)[O-])cc2)SC1=S)c1nc2ccccc2s1	8
CC(=O)Oc1ccc(N2C(=O)C3c4[nH]c5ccccc5c4C4CCC(C(C)(C)C)CC4C3C2=O)cc1 (stereo not given)	16

Query CC(=O)C1(O)Cc2c(O)c3c(c(O)c2C(OC2CC(N)C(O)C(C)O2)C1)C(=O)c1ccccc1C3=O (stereo not given) yields growth inhibition of -1

Notebook: CCN(CC)CC(O)C1CCC(c2ccccc2)CC1 (stereo not given) , growth inhibition read as 6

====

- assay.explanation: NCI Yeast Anticancer Drug Screen. Data for the wt2 strain (AID 169);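 further: 0% = growth of vehicle-treated yeast cultures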
- test.settings: S. cerevisiae wt2 strain growth inhibition; at 3.7 µM; active compounds read high
- Method: Growth inhibition of yeast strains with defined genetic alterations is measured as a screen for potential anti-cancer activity. Selected strains with alterations in DNA damage repair or cell cycle control were exposed to compounds and growth inhibition was measured relative to vehicle treated controls. The strain used in this assay is wt2
Compounds without any hit were thinned out: in the full panel of roughly 79,000, 15% have a hit.
Entries annotated with measured growth inhibition
Value expressed in %; do not type the unit.

Worked examples, 5 compounds total:
compound	endpoint.unit	growth inhibition
NP1(Oc2ccc(F)cc2)=NP(N)(Oc2ccc(F)cc2)=NP(Oc2ccc(F)cc2)(Oc2ccc(F)cc2)=N1 (centres undefined)	%	7
Cc1ccc2c(ccc(/C=C/c3ccc(O)c4ncccc34)[n+]2C)c1	%	2
CC(=O)c1cc2c(Cl)cc(Cl)cc2oc1=O	%	-27
CCOC(=O)c1csc(Br)n1	%	-2
CC(=O)N1C(=O)/C(=C\C(=O)c2ccc([N+](=O)[O-])cc2)c2ccccc21	%	55

Measured growth inhibition of O=[N+]([O-])/C(C(Cl)=C(Cl)Cl)=C1/OCCS1 : 32

Query C=C1N(C)c2ccc(Cl)cc2C1(C)C yields growth inhibition of -30

growth inhibition in this record for COc1ccc(SCc2cc(OC)ccc2OC)cc1 : 0

Record summary for Cc1cccc(/C=N\NC(=S)N2CCCCC2)n1 : reported growth inhibition = 92

Lab note: CN(C)Cc1cccc(CN(C)C)[c]1[Sn]([Br])([c]1ccccc1)[c]1ccccc1 gave growth inhibition of 13

Record COc1cccc(C(c2cc3c(cc2O)OCO3)N2CCOCC2)c1OC (centres undefined) . Reported growth inhibition: -6

Given item c1ccc(N2N=C3N(c4ccccc4)C2N3c2ccccc2)cc1 , the value recorded as its growth inhibition is -7

Field growth inhibition (entry N#C/C(=C\c1ccccc1)c1ccccc1F ) reads -2

====

- assay.explanation: NCI Yeast Anticancer Drug Screen. Data for the rad50 strain (AID 155);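 further: 0% = growth of vehicle-only cultures of the same strain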
- test.settings: S. cerevisiae rad50 strain growth inhibition; at 11.0 µM; active compounds read high
The panel holds about 79,000 compounds, 15% with a hit somewhere; the sample as a whole holds those more often.
metric: growth inhibition (%)
Form entry: value (%) — number only.

Example compounds with recorded growth inhibition:
compound	growth inhibition (%)
O=C1c2ccccc2C(=O)c2cc(S(=O)(=O)Nc3ccccc3)ccc21	11
CN(N=O)c1ccc(/C=C/c2ccnc3ccccc23)cc1	42

Entry CC(=O)C1=C(O)C2(C)c3c(O)c(C)c(O)c(C(C)=O)c3OC2(Sc2ccccc2)CC1=O (stereo not drawn) — recorded growth inhibition = 36

Lab note: Cc1ccc(CNc2ccc(Br)cc2)cc1 gave growth inhibition of 16

Lookup result for Cc1ccc2occ/c(=N\Nc3ccccc3)c2c1 ; measured growth inhibition: 6

# growth inhibition of CCCCC(=O)c1c(O)nc2sccn2c1=O = 82

Record summary for CN(C)CC1CCCc2ccccc2C1=O (stereo not drawn) : reported growth inhibition = 5

Measured growth inhibition, CCCCC1=NNC(=O)C1 : -6

The compound identified as COc1ccc(SCc2cc(OC)ccc2OC)cc1 registered its growth inhibition at 2

According to the records, this compound CCc1nc(N)nc(N)c1-c1ccc(NCCCCCCN)c([N+](=O)[O-])c1 displays growth inhibition of 11

O=C1C=CC(=O)N1c1ccc2c(c1)OCO2 yielded growth inhibition of 99

The compound listed as S=C(S)NCC1CCC(CNC(=S)S)CC1 (stereo not drawn) has a reported growth inhibition of -4

# growth inhibition (compound: Cc1cc(Cl)ccc1NC(=O)/C(Cl)=C1/Sc2ccccc2NC1=O ) is 29

Form: compound = CC(C)c1[nH]nc(C(N)=O)c1N=NN(C)C ; growth inhibition = 33

====

- assay.explanation: NCI Yeast Anticancer Drug Screen. Data for the rad14 strain (AID 159);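 further: 0% = growth of vehicle-treated control cultures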
- test.settings: S. cerevisiae rad14 strain growth inhibition; at 11.0 µM
- Experimental: Growth inhibition of yeast strains with defined genetic alterations is measured as a screen for potential anti-cancer activity. Selected strains with alterations in DNA damage repair or cell cycle control were exposed to compounds and growth inhibition was measured relative to vehicle treated controls. The strain used in this assay is rad14
This is part of a sample that, as a whole, favours compounds with a hit. Of some 79,000 tested, about 15% had one in any assay. Activity calls are given as the source filed them. Rule as the data show it: active = growth inhibition above about 70%; inactive = the rest.
Could you please pick one outcome from this set? t (active), f (inactive)

molecule	label.value
CO[C@@]12[C@H](COC(N)=O)C3=C(C(=O)C(C)=C(N)C3=O)N1C[C@@H]1N[C@@H]12	f
CCC(=O)N(c1ccccc1)C(C)CN1CCC(O)(c2cccc(C(F)(F)F)c2)CC1 (centres undefined)	f
S=C1SCN(CCc2ccccc2)CN1CCc1ccccc1	f

Per the assay record, what outcome was assigned to O=C(NCCCCCN1CCC2(CCCCC2)CC1)C(C1CCCCC1)C1CCCCC1 ? t

What is the recorded call for this molecule in the test? CCc1nc(N)nc(N)c1-c1ccc(NCCCCCCN)c([N+](=O)[O-])c1 f

Test call for this molecule, please: CCN1/C(=C/c2ccc3ccccc3[n+]2CC)C=Cc2ccccc21 t

In this assay, the call recorded for CCOC(=O)c1csc(Br)n1 was what? f

Hello, I am checking results. What call was entered for Cc1ccc(S(=O)(=O)N(C)c2ccc(Cl)cc2C2=NCCc3ccccc32)cc1 ? f

Hi team, can someone confirm the assay call for CC(=O)O[C@H]1C(=O)[C@@]2(C)[C@H]([C@H](OC(=O)c3ccccc3)[C@]3(O)C[C@H](OC(=O)[C@H](O)[C@@H](NC(=O)c4ccccc4)c4ccccc4)C(C)=C1C3(C)C)[C@]1(OC(C)=O)CO[C@@H]1C[C@@H]2O ? f

====

- assay.explanation: NCI Yeast Anticancer Drug Screen. Data for the wt1 strain (AID 149);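 further: 0% = growth of vehicle-treated wt1 cultures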
- test.settings: S. cerevisiae wt1 strain (SPY 50644) growth inhibition; at 1.2 µM; active compounds read high
About 79,000 compounds went through this panel and 15% of them were active in at least one assay; those are over-represented in the sample as a whole.
growth inhibition overview
Express the result in % but write the number alone.

molecule	metric	meas.value
CC(C)c1cccc(O)c(=O)c1	growth inhibition	-1

What the record says about CO[C@@]12[C@H](COC(N)=O)C3=C(C(=O)C(C)=C(N)C3=O)N1C[C@@H]1N[C@@H]12 : growth inhibition is 1

response.value for O=C(/C=N/O)Nc1cc(Cl)c(Cl)cc1Cl (field: growth inhibition) = -37

Form: molecule = COc1ccc(SCc2cc(OC)ccc2OC)cc1 ; growth inhibition = -4

// growth inhibition value for OCCN(CCO)c1ccc2c(c1)Cc1ccccc1-2 : 0

Note to self: growth inhibition recorded for CC(C)(O)c1ccccc1C(c1ccccc1)c1ccccc1 was 0
